target: T1, NK1 receptor (rat brain) (rat, UniProt P14600 1-407); assay: radioligand competition, [125I]BH-SP on crude rat brain plasma membranes, room temperature, 75 min, filtration
T1 construct: whole, on cells; Native receptor in crude rat brain plasma membrane homogenate, not on intact cells; also called SP receptor
T1 sequence (P14600 whole entry): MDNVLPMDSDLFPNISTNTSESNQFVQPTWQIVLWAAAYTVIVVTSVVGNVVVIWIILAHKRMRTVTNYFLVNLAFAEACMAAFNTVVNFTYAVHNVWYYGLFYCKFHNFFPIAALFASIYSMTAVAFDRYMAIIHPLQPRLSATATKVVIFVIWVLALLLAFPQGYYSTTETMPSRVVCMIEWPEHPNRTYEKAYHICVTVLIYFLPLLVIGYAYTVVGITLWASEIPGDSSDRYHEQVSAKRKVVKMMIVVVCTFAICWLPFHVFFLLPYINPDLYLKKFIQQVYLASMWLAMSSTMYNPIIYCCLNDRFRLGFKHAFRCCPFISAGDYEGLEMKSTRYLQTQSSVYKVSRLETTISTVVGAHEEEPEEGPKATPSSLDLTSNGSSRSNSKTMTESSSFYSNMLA
pKd: −log10 of the molar value. Ends that are not written are not given here.
Readout: pKd

binder="YPFFGLM-NH2 (Chimera of endomorphin-2 at the N-terminus and SP(7-11) at the C-terminus; also called chimeric peptide ESP7; Tyr-Pro-Phe-Phe-Gly-Leu-Met-NH2) [ESP7]" readout=pKd value=~6.70
